# Subject of test: Prostaglandin G/H synthase 2 (Homo sapiens) (UniProt P35354)
# Experiment description: Inhibition of COX2-mediated PGE2 formation in IL1beta/TNFalpha-stimulated human HeLa cells using arachidonic acid as substrate assessed as residual activity at 50 uM measured after 30 mins by ELISA
# Assay type: cell-based
Readout type: Activity (%)

Consider the worked cases shown below.
Q) Consider the molecule CC(=O)c1cccc(Nc2nc(-c3ccc(Cl)cc3)cs2)c1 and give its measured Activity.
A) 59.9

Q) Follow-up entry: COc1ccc(Nc2nc(-c3ccc(Cl)cc3)cs2)cc1OC
A) 8.6

Q) Follow-up entry: Cc1ccc(-c2csc(Nc3ccc(O)cc3)n2)cc1
A) 3.4

Q) Follow-up entry: Oc1ccc(Nc2nc(-c3ccccc3)cs2)cc1
A) 3.1

Q) Follow-up entry: Oc1cccc(Nc2nc(-c3ccc(Cl)cc3)cs2)c1
A) 2.7

Q) Follow-up entry: Oc1cccc(Nc2nc(-c3ccccc3)cs2)c1
A) 2.4

a. CCOc1ccc(-c2csc(Nc3ccc(O)cc3)n2)cc1
b. Nc1ccc(-c2csc(Nc3ccc(O)cc3)n2)cc1
c. Clc1ccc(-c2csc(Nc3ccc4c(c3)OCCO4)n2)cc1
d. OC(c1ccc(Nc2nc(-c3ccc(Cl)cc3)cs2)cc1)(C(F)(F)F)C(F)(F)F
Q) Arrange the 4 entries by Activity so the values rise. // ordering of labels required in reply
A) a, b, c, d
(a: 2.1%, b: 3.3%, c: 5.5%, d: 42.9%)

----------
# Subject of test: Polyunsaturated fatty acid lipoxygenase ALOX15 (Homo sapiens) (UniProt P16050)
# Sequence (whole entry): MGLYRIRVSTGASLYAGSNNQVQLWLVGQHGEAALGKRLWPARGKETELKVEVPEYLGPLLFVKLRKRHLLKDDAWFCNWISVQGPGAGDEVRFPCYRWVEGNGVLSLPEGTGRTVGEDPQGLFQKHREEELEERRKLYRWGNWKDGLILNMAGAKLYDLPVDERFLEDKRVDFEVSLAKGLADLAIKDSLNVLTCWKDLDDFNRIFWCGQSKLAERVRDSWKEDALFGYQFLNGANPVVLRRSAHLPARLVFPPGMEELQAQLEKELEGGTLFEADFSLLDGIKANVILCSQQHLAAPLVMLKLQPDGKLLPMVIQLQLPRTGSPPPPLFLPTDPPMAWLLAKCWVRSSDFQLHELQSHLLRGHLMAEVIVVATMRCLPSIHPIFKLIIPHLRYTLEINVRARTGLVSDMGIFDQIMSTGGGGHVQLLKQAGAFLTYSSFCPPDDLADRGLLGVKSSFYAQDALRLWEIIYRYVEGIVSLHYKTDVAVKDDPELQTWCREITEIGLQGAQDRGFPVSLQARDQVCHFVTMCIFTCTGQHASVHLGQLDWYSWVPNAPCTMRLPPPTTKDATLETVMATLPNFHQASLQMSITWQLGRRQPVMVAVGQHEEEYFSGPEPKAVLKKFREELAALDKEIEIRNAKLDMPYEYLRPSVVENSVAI
# Experiment description: Inhibition of 15-LO1-mediated 15-HPETE formation in human eosinophil using arachidonic acid as substrate assessed as residual activity at 50 uM preincubated for 15 mins before substrate addition measured after 10 mins
Readout type: Activity

Q) Consider the molecule Oc1cccc(Nc2nc(-c3ccccc3)cs2)c1 and give its measured Activity.
A) > 70%

Q) Follow-up entry: Oc1ccc(Nc2nc(-c3ccc(Cl)cc3)cs2)cc1
A) > 70%

----------
# Subject of test: Prostaglandin G/H synthase 1 (Homo sapiens)
# Experiment description: Inhibition of COX1 in human platelets using arachidonic acid as substrate assessed as residual activity at 50 uM preincubated for 15 mins before substrate addition measured after 10 mins
Readout type: Activity (%)

Consider the worked cases shown below.
Q) Consider the compound Oc1ccc(Nc2nc(-c3ccc(Cl)cc3)cs2)cc1 and give its measured Activity.
A) 28.6

Q) Follow-up entry: COc1ccccc1Nc1nc(-c2ccc(Cl)cc2)cs1
A) 55.8

Q) Follow-up entry: Oc1cccc(Nc2nc(-c3ccccc3)cs2)c1
A) 4.1

Q) Follow-up entry: COc1ccc(-c2csc(Nc3ccccc3)n2)cc1
A) 2

Q) Follow-up entry: Cc1ccc(-c2csc(Nc3ccc(O)cc3)n2)cc1
A) 18.5

P. FC(F)(F)Oc1ccc(Nc2nc(-c3ccc(Cl)cc3)cs2)cc1
Q. Clc1ccc(-c2csc(Nc3ccc4c(c3)OCO4)n2)cc1
R. Nc1ccc(-c2csc(Nc3ccc(O)cc3)n2)cc1
S. Clc1ccc(-c2csc(Nc3ccc4c(c3)OCCO4)n2)cc1
Q) List these items ordered by Activity, big to small. // ordering of labels required in reply
A) R, S, Q, P

P. FC(F)(F)c1ccc(Nc2nc(-c3ccc(Cl)cc3)cs2)cc1
Q. FC(F)(F)c1cc(Nc2nc(-c3ccc(Cl)cc3)cs2)cc(C(F)(F)F)c1
R. Clc1ccc(-c2csc(Nc3ccccc3)n2)cc1
S. CC(=O)c1ccc(Nc2nc(-c3ccc(F)cc3)cs2)cc1
Q) List these items ordered by Activity, big to small. // ordering of labels required in reply
A) S, Q, R, P

A. Oc1ccc(-c2csc(Nc3ccc(Cl)cc3)n2)cc1
B. Clc1ccc(-c2csc(Nc3cc(Cl)cc(Cl)c3)n2)cc1
Q) Field: lower Activity | Options: A / B Indicate which entry you chose by stating its label.
A) B

1. OC(c1ccc(Nc2nc(-c3ccc(Cl)cc3)cs2)cc1)(C(F)(F)F)C(F)(F)F
2. CCOc1ccc(-c2csc(Nc3ccc(O)cc3)n2)cc1
3. CC(=O)c1cccc(Nc2nc(-c3ccc(Cl)cc3)cs2)c1
4. COc1ccc(Nc2nc(-c3ccc(Cl)cc3)cs2)cc1
Q) List these items ordered by Activity, big to small. // ordering of labels required in reply
A) 3, 4, 2, 1
(3: 38.7%, 4: 25.6%, 2: 16.6%, 1: 2.6%)

----------
Recorded Activity for the following compounds
# Experiment description: Cytotoxicity against human U937 cells at 30 uM after 48 hrs by LDH assay
# Type: cell-based
# Test parameters: u-937, 48 h
Express it in %; write the number only.

Consider the worked cases shown below.
Q) Consider the compound Cc1ccc(-c2csc(Nc3ccc(O)cc3)n2)cc1 and give its measured Activity.
A) 14

Q) Follow-up entry: Oc1ccc(Nc2nc(-c3ccccc3)cs2)cc1
A) 5.5

Q) Follow-up entry: OC(c1ccc(Nc2nc(-c3ccc(Cl)cc3)cs2)cc1)(C(F)(F)F)C(F)(F)F
A) 21.7

Q) Follow-up entry: Oc1ccc(Nc2nc(-c3ccc(Cl)cc3)cs2)cc1
A) 17.5

***
Q) Consider the compound Oc1ccc(-c2csc(Nc3ccc(Cl)cc3)n2)cc1 and give its measured Activity.
A) 1.4

Q) Follow-up entry: COc1ccc(Nc2nc(-c3ccc(Cl)cc3)cs2)cc1
A) 1.6

Q) Follow-up entry: Oc1ccccc1Nc1nc(-c2ccc(Cl)cc2)cs1
A) 0.9

Q) Follow-up entry: FC(F)(F)c1cc(Nc2nc(-c3ccc(Cl)cc3)cs2)cc(C(F)(F)F)c1
A) 18.2

----------
# Subject of test: Prostaglandin G/H synthase 2 (Homo sapiens) (UniProt P35354)
# Sequence (whole entry): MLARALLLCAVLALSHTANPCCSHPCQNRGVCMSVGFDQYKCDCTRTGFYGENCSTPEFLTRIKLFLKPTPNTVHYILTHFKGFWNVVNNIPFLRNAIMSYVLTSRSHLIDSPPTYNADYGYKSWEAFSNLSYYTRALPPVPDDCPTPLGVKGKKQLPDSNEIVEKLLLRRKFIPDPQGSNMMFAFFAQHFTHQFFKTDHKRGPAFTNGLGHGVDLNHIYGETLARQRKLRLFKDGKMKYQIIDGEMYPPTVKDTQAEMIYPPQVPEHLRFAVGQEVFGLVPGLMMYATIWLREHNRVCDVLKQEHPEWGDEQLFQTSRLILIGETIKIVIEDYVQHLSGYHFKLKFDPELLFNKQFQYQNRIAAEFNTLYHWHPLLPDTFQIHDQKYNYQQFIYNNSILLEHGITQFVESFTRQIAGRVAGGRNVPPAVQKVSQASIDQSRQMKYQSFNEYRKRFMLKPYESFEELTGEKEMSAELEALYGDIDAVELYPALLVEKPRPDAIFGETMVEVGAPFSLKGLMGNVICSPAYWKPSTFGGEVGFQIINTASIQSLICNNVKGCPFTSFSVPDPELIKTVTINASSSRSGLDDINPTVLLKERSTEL
# Experiment description: Inhibition of COX2-mediated PGE2 formation in IL1beta/TNFalpha-stimulated human HeLa cells using arachidonic acid as substrate assessed as residual activity at 50 uM measured after 30 mins by ELISA
# Assay type: cell-based
Readout type: Activity (%)

Consider the worked cases shown below.
Q) Consider the compound Oc1ccc(-c2csc(Nc3ccc(F)cc3)n2)cc1 and give its measured Activity.
A) 2.1

Q) Follow-up entry: COc1ccc(Nc2nc(-c3ccccc3)cs2)cc1
A) 3.2

Q) Follow-up entry: COc1ccccc1Nc1nc(-c2ccc(Cl)cc2)cs1
A) 5.3

A. Oc1ccc(-c2csc(Nc3ccc(Cl)cc3)n2)cc1
B. COc1ccc(Nc2nc(-c3ccc(Cl)cc3)cs2)cc1
C. Clc1ccc(-c2csc(Nc3cc(Cl)cc(Cl)c3)n2)cc1
D. COc1ccc(Nc2nc(-c3ccc(Cl)cc3)cs2)c(OC)c1
E. CC(=O)c1ccc(Nc2nc(-c3ccc(F)cc3)cs2)cc1
Q) Arrange the 5 entries by Activity so the values rise. // ordering of labels required in reply
A) A, B, E, D, C

1. Clc1ccc(-c2csc(Nc3ccccc3)n2)cc1
2. COc1ccc(-c2csc(Nc3ccccc3)n2)cc1
Q) Exercise: compare 1 and 2 ; which one has the greater Activity? Indicate which entry you chose by stating its label.
A) 1
(1: 5%, 2: 2.3%)

P. FC(F)(F)Oc1ccc(Nc2nc(-c3ccc(Cl)cc3)cs2)cc1
Q. O=S(=O)(c1ccc(-c2csc(Nc3ccc(Cl)cc3)n2)cc1)N1CCOCC1
R. Oc1ccc(Nc2nc(-c3ccc(Cl)cc3)cs2)cc1
Q) List these items ordered by Activity, big to small. // ordering of labels required in reply
A) Q, P, R
(Q: 39.1%, P: 17.8%, R: 4.1%)

I. FC(F)(F)c1cc(Nc2nc(-c3ccc(Cl)cc3)cs2)cc(C(F)(F)F)c1
II. Clc1ccc(-c2csc(Nc3ccc4c(c3)OCO4)n2)cc1
Q) Field: lower Activity | Options: I / II Indicate which entry you chose by stating its label.
A) II
